TARGET_OR_TEST_SYSTEM: human 5-HT2AR (Homo sapiens, UniProt P28223)
Construct: expressed in transfected cells; host or cells: HEK293
Sequence (P28223 whole entry): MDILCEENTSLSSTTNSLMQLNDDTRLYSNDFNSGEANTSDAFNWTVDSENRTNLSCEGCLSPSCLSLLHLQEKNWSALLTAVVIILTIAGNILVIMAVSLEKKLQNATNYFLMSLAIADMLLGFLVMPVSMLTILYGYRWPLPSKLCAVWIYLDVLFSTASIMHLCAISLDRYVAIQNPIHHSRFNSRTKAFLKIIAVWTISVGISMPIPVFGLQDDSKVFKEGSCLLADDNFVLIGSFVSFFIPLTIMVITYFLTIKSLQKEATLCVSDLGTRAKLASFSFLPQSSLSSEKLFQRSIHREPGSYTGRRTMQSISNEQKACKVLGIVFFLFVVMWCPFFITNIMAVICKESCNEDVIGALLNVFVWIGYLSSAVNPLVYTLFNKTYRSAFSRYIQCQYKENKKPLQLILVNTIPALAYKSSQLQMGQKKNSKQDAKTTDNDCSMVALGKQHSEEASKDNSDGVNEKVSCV
ASSAY_OVERVIEW: HTRF-based IP1 accumulation assay (5-HT2AR antagonistic effect)
Assay type: cell-based
DETAILS: HEK293 cells overexpressing human 5-HT2AR; serotonin at EC80
MEASURED_PARAMETER: IC50

> print(dat)
                                   compound  measured.parameter         observed
1  CC1(CNC(=O)c2ccc(C#Cc3ccc(F)cc3F)cc2)CCCO1 (stereo not drawn) [Example 119]                IC50         < 100 nM
2  O=C(O)CC1(CNC(=O)c2ccc(C#Cc3ccccc3F)cc2)CCCCC1 [Example 76]                IC50    100 to 500 nM
3  O=C(NC[C@H]1C[C@H](O)C1)c1ccc(C#Cc2ccccc2F)cc1 [Example 86]                IC50  1000 to 2000 nM
4  O=C(NCC1CCOC1)c1ccc(C#Cc2ccc(F)cc2)cc1 (stereo not drawn) [Example 94]                IC50    100 to 500 nM
5  CC1(CNC(=O)c2ccc(C#Cc3ccccc3F)cc2)CCOCC1 [Example 36]                IC50   500 to 1000 nM
6  O=C(NC[C@@H]1CCCO1)c1ccc(C#Cc2ccc(F)cc2F)cc1 [Example 117]                IC50         < 100 nM
7  O=C(NCC1CCOCC1)c1ccc(C#Cc2ccccc2)cc1 [Example 49]                IC50    100 to 500 nM
8  C[C@@H](NC(=O)c1ccc(C#Cc2ccccc2F)cc1)C1CCOCC1 [Example 47]                IC50    100 to 500 nM
9  CC(C)(C)CNC1(CNC(=O)c2ccc(C#Cc3ccccc3F)cc2)CCCCC1 [Example 28]                IC50    100 to 500 nM

----------
Listed here: items and their measured pIC50.
TARGET_OR_TEST_SYSTEM: mGluR5 (Homo sapiens)
Construct: expressed in transfected cells; host or cells: HEK293
Sequence (P41594 21-1212): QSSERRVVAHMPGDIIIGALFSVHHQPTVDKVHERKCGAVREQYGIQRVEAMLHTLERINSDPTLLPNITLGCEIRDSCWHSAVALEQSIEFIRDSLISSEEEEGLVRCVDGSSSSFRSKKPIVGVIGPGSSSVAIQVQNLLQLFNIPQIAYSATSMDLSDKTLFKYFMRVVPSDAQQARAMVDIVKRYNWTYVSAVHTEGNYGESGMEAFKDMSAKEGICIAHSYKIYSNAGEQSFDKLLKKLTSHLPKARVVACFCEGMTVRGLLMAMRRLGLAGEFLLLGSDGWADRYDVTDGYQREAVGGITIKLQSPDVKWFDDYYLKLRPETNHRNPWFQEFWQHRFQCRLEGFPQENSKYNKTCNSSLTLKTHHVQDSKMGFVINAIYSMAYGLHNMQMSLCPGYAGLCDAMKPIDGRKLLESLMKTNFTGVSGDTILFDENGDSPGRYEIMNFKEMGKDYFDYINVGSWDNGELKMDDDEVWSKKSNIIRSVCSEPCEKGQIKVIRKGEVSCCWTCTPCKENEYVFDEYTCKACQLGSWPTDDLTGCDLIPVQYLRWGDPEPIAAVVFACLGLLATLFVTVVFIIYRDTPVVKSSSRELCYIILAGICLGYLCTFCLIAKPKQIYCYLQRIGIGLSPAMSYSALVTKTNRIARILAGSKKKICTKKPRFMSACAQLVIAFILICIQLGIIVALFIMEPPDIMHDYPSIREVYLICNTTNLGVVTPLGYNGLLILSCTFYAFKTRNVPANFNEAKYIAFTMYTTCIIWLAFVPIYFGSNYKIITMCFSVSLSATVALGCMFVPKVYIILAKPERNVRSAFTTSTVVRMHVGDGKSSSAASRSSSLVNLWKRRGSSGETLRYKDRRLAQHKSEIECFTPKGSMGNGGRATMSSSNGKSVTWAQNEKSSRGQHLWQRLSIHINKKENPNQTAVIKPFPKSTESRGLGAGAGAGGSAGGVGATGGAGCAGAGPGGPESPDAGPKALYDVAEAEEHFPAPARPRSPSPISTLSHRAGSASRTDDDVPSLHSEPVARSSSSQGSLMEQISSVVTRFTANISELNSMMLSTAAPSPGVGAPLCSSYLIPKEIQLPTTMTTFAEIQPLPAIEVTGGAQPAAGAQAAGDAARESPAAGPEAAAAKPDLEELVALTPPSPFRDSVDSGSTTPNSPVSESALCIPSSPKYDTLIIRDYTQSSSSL
ASSAY_OVERVIEW: Fluorescence-based Ca2+ mobilization assay
Type: cell-based
DETAILS: HEK293 cells overexpressing mGluR5; L-glutamate at EC80
Method: In order to measure the activity on the mGluR5, an experiment was carried out to check the change in the intracellular Ca^2+ level using the HEK293 cell line permanently overexpressing the mGluR5. […] The Ca^2+ level change induced by L-glutamate at EC80 concentration was measured for 2 minutes using FLIPR Tetra (MDS Analytical Technologies). […] The efficacy of the test compounds was calculated as IC50 values and represented in Table 1. […]
pIC50: −log10 of the molar value.
MEASURED_PARAMETER: pIC50

> print(dat)
                                    compound  measured.parameter      observed
 1  CC1(C)CC(CNC(=O)c2ccc(C#Cc3ccccc3F)cc2)CCO1 (stereo not shown)               pIC50  6.30 to 7.00
 2  COC1(CNC(=O)c2ccc(C#Cc3ccccc3F)cc2)CCCCC1               pIC50        > 7.00
 3  O=C(NC[C@@H]1CCCOC1)c1ccc(C#Cc2ccccc2F)cc1               pIC50        > 7.00
 4  NC(=O)CC1(CNC(=O)c2ccc(C#Cc3ccccc3F)cc2)CCCCC1               pIC50        > 7.00
 5  O=C(NCC1(NC2CC2)CCC1)c1ccc(C#Cc2ccncc2)cc1               pIC50  6.30 to 7.00
 6  O=C(NCC1CCO1)c1ccc(C#Cc2ccccc2F)cc1 (stereo not shown)               pIC50  6.30 to 7.00
 7  O=C(O)CC1(CNC(=O)c2ccc(C#Cc3ccccc3F)cc2)CCCCC1               pIC50  6.00 to 6.30
 8  O=C(NC[C@H]1C[C@@H](O)C1)c1ccc(C#Cc2ccccc2F)cc1               pIC50  6.30 to 7.00
 9  O=C(NCC1CCC(F)(F)CC1)c1ccc(C#Cc2ccc(F)cc2F)cc1               pIC50        > 7.00
10  O=C(NC[C@@H]1CCCO1)c1ccc(C#Cc2ccccc2F)cc1               pIC50  6.30 to 7.00
11  O=C(NC[C@@H]1CCCOC1)c1ccc(C#Cc2ccc(F)cc2)cc1               pIC50  6.30 to 7.00
12  O=C(NCC1CC(F)(F)C1)c1ccc(C#Cc2ccccc2)cc1               pIC50        > 7.00
13  O=C(NCC1(NC2CC2)CCCCC1)c1ccc(C#Cc2ccc(F)cc2)cc1               pIC50  5.70 to 6.00
14  O=C(NCC1(N2CCOCC2)CCCC1)c1ccc(C#Cc2ccccc2F)cc1               pIC50  6.00 to 6.30
15  O=C(NC[C@@H]1CCCO1)c1ccc(C#Cc2ccc(F)cc2)cc1               pIC50  6.30 to 7.00
16  O=C(NCC1(NC2CC2)CCCCCC1)c1ccc(C#Cc2ccc(F)cc2)cc1               pIC50  6.30 to 7.00
17  O=C(NCC1CCCCC1O)c1ccc(C#Cc2ccccc2F)cc1 (stereo not shown)               pIC50        > 7.00
18  O=C(NCC1CCO1)c1ccc(C#Cc2ccc(F)cc2F)cc1 (stereo not shown)               pIC50  5.70 to 6.00
19  O=C(NCC1(NC2CC2)CCC1)c1ccc(C#Cc2ccncc2)cc1F               pIC50  6.30 to 7.00
